Biological target: T1, human programmed cell death protein 1 (hPD-1) C93S (aa 24-167) (Homo sapiens, UniProt Q15116, C93S)
T1 construct: made as a fusion with a TEV site and human Fc; the Fc was cut off with TEV protease; source: Expi293F, purified (Protein A, TEV cleavage of Fc, SEC; monomer fractions); not shown: Fc (human), C-terminal, cleaved
T1 sequence (Q15116 24-167 C93S): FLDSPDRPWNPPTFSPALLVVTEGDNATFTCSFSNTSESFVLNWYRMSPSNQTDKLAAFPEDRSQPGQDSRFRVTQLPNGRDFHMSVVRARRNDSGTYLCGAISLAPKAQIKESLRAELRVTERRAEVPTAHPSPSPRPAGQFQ
Experiment: SPR; Carterra LSA; Fab from the ammonium sulfate precipitate of the culture supernatant immobilised on a NiHC200M chip; hPD-1 (1-1024 nM) or mPD-1-Fc (4-1024 nM) as analyte, fourfold dilution series, no regeneration; HBS-EP pH 7.4, 25 °C; medians over the spots of a construct, KD = koff/kon
Details: one partner purified
reported.metric: koff

Some entries whose results are on file:
binder | koff
toripalimab Fab H.K65A (Fab, V domains shown, heavy chain of Sm3 with this change; numbers count from the chain's first residue; as the light chain of Sm3; source: Brevibacillus, culture supernatant (ammonium sulfate precipitate); not shown: 6xHis, C-terminal, kept; 6xHN, C-terminal, kept) VH: QGQLVQSGAEVKKPGASVKVSCKASGYTFTDYEMHWVRQAPIHGLEWIGVIESETGGTAYNQKFAGRVTITADKSTSTAYMELSSLRSEDTAVYYCAREGITTVATTYYWYFDVWGQGTTVTVSS VL: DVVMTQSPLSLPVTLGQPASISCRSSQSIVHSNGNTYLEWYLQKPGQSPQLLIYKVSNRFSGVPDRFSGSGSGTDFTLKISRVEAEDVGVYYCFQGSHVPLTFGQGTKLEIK | < 1e-05 s⁻¹
toripalimab Fab L.V99W (Fab, V domains shown, as the heavy chain of Sm3; light chain of Sm3 with this change; numbers count from the chain's first residue; source: Brevibacillus, culture supernatant (ammonium sulfate precipitate); not shown: 6xHis, C-terminal, kept; 6xHN, C-terminal, kept) VH: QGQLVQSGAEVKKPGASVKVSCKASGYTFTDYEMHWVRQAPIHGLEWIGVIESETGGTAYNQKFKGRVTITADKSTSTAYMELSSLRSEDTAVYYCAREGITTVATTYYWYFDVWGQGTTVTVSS VL: DVVMTQSPLSLPVTLGQPASISCRSSQSIVHSNGNTYLEWYLQKPGQSPQLLIYKVSNRFSGVPDRFSGSGSGTDFTLKISRVEAEDVGVYYCFQGSHWPLTFGQGTKLEIK | 0.000522 s⁻¹
toripalimab Fab H.M34A (Fab, V domains shown, heavy chain of Sm3 with this change; numbers count from the chain's first residue; as the light chain of Sm3; source: Brevibacillus, culture supernatant (ammonium sulfate precipitate); not shown: 6xHis, C-terminal, kept; 6xHN, C-terminal, kept) VH: QGQLVQSGAEVKKPGASVKVSCKASGYTFTDYEAHWVRQAPIHGLEWIGVIESETGGTAYNQKFKGRVTITADKSTSTAYMELSSLRSEDTAVYYCAREGITTVATTYYWYFDVWGQGTTVTVSS VL: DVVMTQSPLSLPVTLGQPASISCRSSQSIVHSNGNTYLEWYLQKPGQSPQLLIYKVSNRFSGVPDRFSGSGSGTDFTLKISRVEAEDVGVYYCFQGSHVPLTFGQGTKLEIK | 3.28e-05 s⁻¹
toripalimab Fab H.G100Y (Fab, V domains shown, heavy chain of Sm3 with this change; numbers count from the chain's first residue; as the light chain of Sm3; source: Brevibacillus, culture supernatant (ammonium sulfate precipitate); not shown: 6xHis, C-terminal, kept; 6xHN, C-terminal, kept) VH: QGQLVQSGAEVKKPGASVKVSCKASGYTFTDYEMHWVRQAPIHGLEWIGVIESETGGTAYNQKFKGRVTITADKSTSTAYMELSSLRSEDTAVYYCAREYITTVATTYYWYFDVWGQGTTVTVSS VL: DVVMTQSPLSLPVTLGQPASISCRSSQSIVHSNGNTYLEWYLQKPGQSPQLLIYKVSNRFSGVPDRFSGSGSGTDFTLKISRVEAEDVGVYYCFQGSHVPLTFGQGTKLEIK | 0.00166 s⁻¹

Would you kindly look at the next entry?
Param item = toripalimab Fab H.V104A (Fab, V domains shown, heavy chain of Sm3 with this change; numbers count from the chain's first residue; as the light chain of Sm3; source: Brevibacillus, culture supernatant (ammonium sulfate precipitate); not shown: 6xHis, C-terminal, kept; 6xHN, C-terminal, kept) VH: QGQLVQSGAEVKKPGASVKVSCKASGYTFTDYEMHWVRQAPIHGLEWIGVIESETGGTAYNQKFKGRVTITADKSTSTAYMELSSLRSEDTAVYYCAREGITTAATTYYWYFDVWGQGTTVTVSS VL: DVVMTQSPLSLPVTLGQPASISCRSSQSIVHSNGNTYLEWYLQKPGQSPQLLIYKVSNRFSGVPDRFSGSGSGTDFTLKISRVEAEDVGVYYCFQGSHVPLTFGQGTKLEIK ; retrieve measured koff.
8.98e-05 s⁻¹

The measurements presented in this section are drawn from paper PMC10663500.
